assayRemarks: yeast display, Sf9 membrane polyspecificity reagent, FACS + sequencing; frameworks hold sequencing errors
assayMetric: polyreactivity (PSR sort gate)

>>> recordedmeasurement("QVQLVESGGGLVQAGGSLRLSCAASGSTFSRYAMGWYRQAPGKERELVAAITRSGGSTYYADSVKGRFTISRDNAKNTVYLQMNSLKPEDTAVYYCAASRGRGGYGFDYWGQGTQVTVSS")
"high polyreactivity"
>>> recordedmeasurement("QVQLVESGGGLVQAGGSLRVSCAASGSTCSQYVMGWYRQAPGKERELVAAISGGYRTYYADSVKGRFTISRDNAKNTVYLQMNSLKPEDTAVYYCAAEVLKTRWSYDYWGQGTQVTVSS")
"high polyreactivity"

---

assayRemarks: yeast display, Sf9 membrane polyspecificity reagent, FACS + sequencing; frameworks hold sequencing errors
assayMetric: polyreactivity (PSR sort gate)

>>> recordedmeasurement("QVQLVESGGGLVQAGGSLRLSCAASGSTFQFNFMGWYRQAPGKERELVAAITSGASTYYADSVKGRFTISRDNAMNTVYLQMNSLEPEDTAVYYCAVDYSFRYDYVQRYYYLGQGTQVTVSS")
"high polyreactivity"
>>> recordedmeasurement("QFKLVESGGGLVQAGGSLRLSCAASGSTFKWNAMGWYRQAPGKERELVAAITSGGSTTYADSVKGRFTISRDNAKNTVYLQMNSLKPEDTAVYYCAAAYRRHYYGVYRFDYWGQGTQVTVSS")
"high polyreactivity"

---

assayRemarks: yeast display, Sf9 membrane polyspecificity reagent, FACS + sequencing; frameworks hold sequencing errors
assayMetric: polyreactivity (PSR sort gate)

>>> recordedmeasurement("QVQLVESGGGLVQAGVSLRLSCAASGSTSSRNAMGRYRQAPGKEWELVAAITSGTRTYYADSVKGRFTISRDNAKNTVYLQMNSLKPEDTAVYYCARGRVSRYTNTDYDYWGQGTQVTVSS")
"high polyreactivity"
>>> recordedmeasurement("QVQLVESGGGLVQAGGSLRLSCAASGITFAPYAMGWYRQAPGKEREFVAGISWSGTTTYYADSVKGRFTISRDNAKNTVYLQMNSLKPEDTAVYYCATDYFNYGYFDFRWYYYWGQGTQVTVSS")
"high polyreactivity"

---

assayRemarks: yeast display, Sf9 membrane polyspecificity reagent, FACS + sequencing; frameworks hold sequencing errors
assayMetric: polyreactivity (PSR sort gate)

>>> recordedmeasurement("QVQLVESGGGLVQAGGSLRLSCADSGSTFVSNTMGWYRQAPGKERELVAAISSSGGSTYYADSVKGRFSISRDNAKNTVYLQMNSLKPEDTAVYYCAAYYRAYRRDYYWGQGTQVTVSS")
"high polyreactivity"
>>> recordedmeasurement("QVQLVESGGGLVQAGGSLRLSCAASGSIFVVNAMGWYRQAPGKERELVAAITFSGDSTYYADSVKGRFTISRDNAKNTVYLQMNSLKPEDTAVYYCAAARRSSHWFTYDYWGQGTQVTVSS")
"high polyreactivity"
>>> recordedmeasurement("QVQLVESGGRLVQAGGSLRLSCAASGSTFPLYARGWCRQAPGKERELVAAITGGGGRTYYADSVKGRFTISRDNAKNTVYLQMNSLKPEDTGVYYCNAVVYLTNYWYDYWGQGTQVTVSS")
"low polyreactivity"
>>> recordedmeasurement("QVQLVESGGGLVQAGGSLRLSCAPSGSTFRVYGMGWYRQAPGKETELVAVIRWRGGRTSYADSVKGRFTISRDNAKNTVYLQMNSLKPEDTAVYYCAAAYWNDWSQYDYWGQGTQVTVSS")
"high polyreactivity"
>>> recordedmeasurement("EEQLVESGGGLVQPGGSLRLSCAASVYIYSRYRMGWYRQAPGKGREFVAAISGGSSPNYADCVKGRFTISRDNSKNTVYLQMNSLRAEDTAVYYCAAYKIDSDPRVYWGQGTQVTVSS")
"low polyreactivity"
